Hi! I'm sharing some IC50 results obtained with Cholinesterase (Homo sapiens, UniProt P06276).
Sequence (P06276 whole entry): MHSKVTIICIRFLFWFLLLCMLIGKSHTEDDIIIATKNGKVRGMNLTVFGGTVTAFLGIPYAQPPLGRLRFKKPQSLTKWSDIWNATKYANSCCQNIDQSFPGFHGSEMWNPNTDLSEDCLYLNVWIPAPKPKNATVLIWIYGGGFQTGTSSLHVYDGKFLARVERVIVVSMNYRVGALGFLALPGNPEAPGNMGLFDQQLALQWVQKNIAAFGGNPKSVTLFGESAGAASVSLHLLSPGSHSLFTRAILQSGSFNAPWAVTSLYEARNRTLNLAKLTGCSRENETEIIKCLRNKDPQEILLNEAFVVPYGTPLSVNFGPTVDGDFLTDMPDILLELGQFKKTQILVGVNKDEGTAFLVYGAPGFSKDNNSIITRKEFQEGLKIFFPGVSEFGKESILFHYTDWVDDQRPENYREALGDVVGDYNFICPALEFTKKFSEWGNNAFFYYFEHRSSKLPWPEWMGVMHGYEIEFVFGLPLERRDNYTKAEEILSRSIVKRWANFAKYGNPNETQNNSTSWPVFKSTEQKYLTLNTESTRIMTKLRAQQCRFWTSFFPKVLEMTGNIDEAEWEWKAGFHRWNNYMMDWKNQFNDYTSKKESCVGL

Compound	U	IC50
COc1cc2c(cc1OC)C(=O)C(CC1CCN(CCNc3c4c(nc5cc(Cl)ccc35)CCCC4)CC1)C2 (stereo not drawn)	nM	136
COc1cc2c(cc1OC)C(=O)C(CC1CCN(CCCNc3c4c(nc5ccccc35)CCCC4)CC1)C2 (stereo not drawn)	nM	12.3
COc1cc2c(cc1OC)CC(CC1CCN(CCNc3c4c(nc5cc(Cl)ccc35)CCCC4)CC1)C2	nM	88.7
COc1cc2c(cc1OC)CC(CC1CCN(CCNc3c4c(nc5ccccc35)CCCC4)CC1)C2	nM	8.06
COc1cc2c(cc1OC)CC(CC1CCN(Cc3ccccc3)CC1)C2	nM	6400
COc1cc2c(cc1OC)C(=O)C(CC1CCN(CCCNc3c4c(nc5cc(Cl)ccc35)CCCC4)CC1)C2 (stereo not drawn)	nM	66.3
COc1cc2c(cc1OC)CC(CC1CCN(CCCNc3c4c(nc5ccccc35)CCCC4)CC1)C2	nM	7.25
COc1cc2c(cc1OC)CC(CC1CCN(CCCNc3c4c(nc5cc(Cl)ccc35)CCCC4)CC1)C2	nM	72.7
